Test system: MALME-3M melanoma
Assay: NCI tumour cell line growth inhibition, 48 h; in the data active means GI50 below about 0.43 µM; inactive means the rest
Answer with one of the outcomes active, inactive

Recorded results for 5 compounds are shown here.
INSERT INTO results (compound, tested_system, category_label) VALUES
  ('CC(=O)O[C@H]1C[C@@H]2[C@@]3(C)CC[C@H]4C[C@@]4(C)[C@@H]3CC[C@@]2(C)C2=CCC3=C(COC3=O)[C@]21C', 'MALME-3M melanoma', 'inactive'),
  ('CCOC(=O)c1c(Cl)c2c(n1Cc1ccccc1)-c1oncc1CCC2', 'MALME-3M melanoma', 'inactive'),
  ('C#CCCCCCC(=O)N[C@H]1C=C[C@@H]2/C=C(C)/C=C/[C@@H](C)[C@H]([C@H](C)[C@H](O)[C@@H](C)NC(C)=O)OC(=O)/C=C/C=C(C)\C=C\[C@]2(C)C1', 'MALME-3M melanoma', 'inactive'),
  ('O=C(O)CSc1cc(NS(=O)(=O)c2ccc(Br)cc2)c2ccccc2c1O', 'MALME-3M melanoma', 'inactive'),
  ('O=C(CCN1CCOCC1)Nc1ccc(Cn2nnc3c2C(=O)c2nnn(Cc4ccc(NC(=O)CCN5CCOCC5)cc4)c2C3=O)cc1', 'MALME-3M melanoma', 'active');

Name the outcome recorded for COc1ccc(-n2c(=O)c3ccccc3n(Cc3ccc(C(=O)NO)cc3)c2=O)cc1 in the assay.
inactive

What was the test verdict on CNCc1cccc2c1OCCOCCOCCNS(=O)(=O)c1ccc(cc1)-c1cnc(N)c(n1)C(=O)N2 ?
inactive

What outcome does the record of this test show for CN1CCN(C(=O)/C=C/c2ccc([N+](=O)[O-])o2)CC1 ?
inactive

Record request — test call for COC(=O)C(C)NP(=O)(OCc1cccc(Cn2cnc3c(N)ncnc32)c1)Oc1ccccc1 (centres undefined)
inactive

###

Here, each record is paired with measured TGI data.
Test system: UACC-62 melanoma
Assay: NCI tumour cell line growth inhibition, 48 h
# output: bare number, implied unit µM

// known answers, use as guide
INSERT INTO assay_data (compound, tested_system, data_value) VALUES
  ('O=S(=O)(Nc1ccccc1)c1ccc(C2CC3(Cl)C(Cl)=C(Cl)C2(Cl)C3(Cl)Cl)cc1 (stereo not drawn)', 'UACC-62 melanoma', 3.58),
  ('COc1ccc(/C=C2\C[C@H]3[C@@H]4CC=C5C[C@@H](O)CC[C@]5(C)[C@H]4CC[C@]3(C)\C2=N\O)cc1', 'UACC-62 melanoma', 50.3),
  ('O=C(Nc1ccc(Cl)cc1Cl)C1C(=O)OC2(CCCCC2)OC1=O', 'UACC-62 melanoma', 24.4),
  ('CCOC(=O)c1c(C)n(-c2ccc(C)cc2)c(=O)c2ccccc2c(=O)c2c(=O)ccc(=O)c1=2', 'UACC-62 melanoma', 52),
  ('O=C(CC1(O)C(=O)Nc2c(Cl)cc(Cl)cc21)c1cccc([N+](=O)[O-])c1 (stereo not drawn)', 'UACC-62 melanoma', 44.7),
  ('Nc1nccc(NCC2(CO)CC(CCc3ccccc3)C2)n1 (stereo not drawn)', 'UACC-62 melanoma', 28.5),
  ('CN(c1ccccc1)c1c2ccccc2nc2[nH]c3ccccc3c12', 'UACC-62 melanoma', 4.21),
  ('CC1C(OS(=O)(=O)c2ccc3[nH]c(=S)sc3c2)CC2C3(C)CCC2(C(C)C(=O)O)C(O)C13 (stereo not drawn)', 'UACC-62 melanoma', 63.3),
  ('COc1cc2c3c(n(CCCN)c(=O)c2cc1OC)-c1ccc(N)cc1C3=O', 'UACC-62 melanoma', 10.7),
  ('COC1=CC(=O)C(O)=C(CC2(C)C(C)CCC3(C)C2CCCC3(C)C)C1=O (stereo not drawn)', 'UACC-62 melanoma', 5.96);

Simply: O=C(CCN1CCOCC1)Nc1ccc(Cn2nnc3c2C(=O)c2nnn(Cc4ccc(NC(=O)CCN5CCOCC5)cc4)c2C3=O)cc1 , UACC-62 melanoma, TGI = 3.14

Noted TGI for N#C[Se]CCN1C(=O)c2ccccc2C1=O , tested on UACC-62 melanoma: 3.74

TGI on UACC-62 melanoma for C=CCN1C(=O)NC(=O)/C(=C/c2c3ccccc3cc3ccccc23)C1=O is 50.4

Hey, UACC-62 melanoma data for CC(C)CCCC(C)C1CCC2C3CC([N+](=O)[O-])=C4CC(O)CCC4(C)C3CCC12C (stereo not drawn) : TGI came out at 40.3

Record for N#CC1=C(S)N(C2OC(CO)C(O)C(O)C2O)C(c2ccccc2)=CC1c1ccco1 (stereo not drawn) under target or system UACC-62 melanoma: TGI reported as 42.1

The observed TGI for CCN1CCN(CC(=O)Nc2nc3ccc(NCc4ccc(Br)cc4)cc3s2)CC1 when tested with UACC-62 melanoma stands at 3.52

TGI for UACC-62 melanoma with input N#CCc1nc(-c2cc3ccccc3oc2=O)cs1 equals 45.6

Entry CN(C)c1ccc(/C=N/N=C(\C#N)[S][Sn]([Cl])([c]2ccccc2)[c]2ccccc2)cc1 : TGI on UACC-62 melanoma = 2.87

###

Test system: MCF7 breast
Experiment: NCI tumour cell line growth inhibition, 48 h
TGI by entry:

Check out these entries, answers already filled in.
INSERT INTO assay_data (compound, attribute_measured, data_value) VALUES
  ('Cc1cn([C@H]2C[C@@H](N3C(=O)c4ccccc4C3=O)[C@@H](CO[Si](C)(C)C(C)(C)C)O2)c(=O)[nH]c1=O', 'TGI', '> 100 µM'),
  ('O=C(NC1CCCCC1)c1n[nH]nc1Cl', 'TGI', '> 100 µM'),
  ('CC[C@@H]1CC[C@@H]2[C@H](CC[C@]3(C)[C@@H](O[N+](=O)[O-])CC[C@@H]23)[C@H]1C(C)=O', 'TGI', '83.1 µM'),
  ('Cc1cccc(Oc2ccc(Nc3ncnc4ccc(NC(=O)CN(C)C)cc34)cc2Cl)c1', 'TGI', '3.87 µM'),
  ('CCN(C(=O)N[C@@H](CC(C)C)C(=O)NCC(=O)OC)c1ccccc1', 'TGI', '> 100 µM');

Lab note: measured TGI of CN(C)CCCC1(c2ccc(F)cc2)OCc2cc(-c3csc4ccccc34)ccc21 (stereo not drawn) was 3.27 µM

Noted for O=C1CSC(c2cc3cc(Br)ccc3nc2Cl)N1c1ccc(Cl)cc1 (stereo not drawn) : its TGI reads 67.6 µM

Given item O=[N+]([O-])c1ccc2c3c1[C@@H]1O[C@@H]1c1cccc(c1-3)[C@@H]1O[C@H]21 , the value recorded as its TGI is > 100 µM

Recorded TGI (compound COC(=O)c1c(C)cccc1C1CN=NC12Cc1cc(C)c(C)cc1C2=O (stereo not drawn) ): > 100 µM

Just so you know, measured TGI for CN1CCN(C(=O)/C=C/c2ccc([N+](=O)[O-])o2)CC1 came out at 38.1 µM

###

Tested on: OVCAR-8 ovarian
Assay: NCI tumour cell line growth inhibition, 48 h
ATTRIBUTE MEASURED: TGI (µM)
Write the value in µM as a bare number.

Check out these entries, answers already filled in.
INSERT INTO measurements (compound, data_value) VALUES
  ('CN(C)CCNC(=O)c1cccc2c1nc(-c1cccnc1)c1ccccc12', 54.8),
  ('O=S(=O)(Nc1ccccc1)c1ccc(C2CC3(Cl)C(Cl)=C(Cl)C2(Cl)C3(Cl)Cl)cc1 (stereo not given)', 10.9),
  ('COc1cc2c(Oc3ccc(-c4cnc(Nc5ccc(F)cc5)n(C)c4=O)cc3F)ccnc2cc1OCCCN1CCOCC1', 4.72),
  ('COc1cc2c(cc1OCCN1CCN(CCN3C(=O)c4cccc5cccc(c45)C3=O)CC1)N=C[C@@H]1CCCN1C2=O', 44.3),
  ('CC(C)(C)C1CC[C@H]2c3c([nH]c4ccccc34)[C@H]3C(=O)N(c4ccc(F)cc4)C(=O)[C@H]3[C@H]2C1 (stereo not given in full)', 25.2);

For this compound ( COc1cc(Nc2cc(Cl)cc(Cl)c2)nc(N)n1 ), measured TGI is 39.6

Memo: Fc1ccc2c(c1)SC1=Nc3sc4cc(F)ccc4[n+]3CN12 , reported TGI: 38

The recorded TGI for entry CN(C)c1ccc(/C=N/N=C(\C#N)[S][Sn]([Cl])([c]2ccccc2)[c]2ccccc2)cc1 equals 4.91

###

Tested on: HCT-116 colon
Assay: NCI tumour cell line growth inhibition, 48 h
Below: a set of entries, each annotated with reported TGI.

Sample answers from the record:
INSERT INTO results (compound, data_value) VALUES
  ('CC(C)C(=O)Cc1ccc2ccccc2n1', '> 100 µM'),
  ('CN1CCN(C(=O)/C=C/c2ccc([N+](=O)[O-])o2)CC1', '22.4 µM'),
  ('CC(=O)n1c2ccc(Br)cc2c2nc3ccccc3nc21', '> 100 µM'),
  ('C=CCN(CC=C)Cc1c[nH]c2ccccc12', '32.1 µM'),
  ('O=C1c2ccccc2N1C(=O)c1ccccc1[N+](=O)[O-]', '> 100 µM');

// assay HCT-116 colon, entry Cc1ccccc1NC(=O)CC(=O)NNCC(=O)Nc1nnc(-c2ccccc2)s1 , TGI value = > 100 µM

Record CCOC(=O)C1C(NC(N)=O)N(Cc2ccccc2)C(=O)N1Cc1ccccc1 (centres undefined) has HCT-116 colon TGI equal to > 100 µM

Case CC1OC(OC2C(OC(=O)[C@]34CCC(C)(C)C[C@H]3C3=CC[C@@H]5[C@@]6(C)CC[C@H](OC7OC(CO)C(O)C(O)C7OC7OC(CO)C(O)C(O)C7O)C(C)(C)[C@@H]6CC[C@@]5(C)[C@]3(C)CC4)OCC(O)C2O)C(O)C(O)C1OC1OCC(O)C(O)C1O (some centres undefined) , HCT-116 colon, TGI recorded as 44.8 µM

Entry COc1cc(/C=C/c2cc(/C=C/c3ccc(O)c(OC)c3)n(C(=O)Nc3ccc(C)cc3)n2)ccc1O : TGI on HCT-116 colon = 1.53 µM
